Where do the numbers come from? From PubChem BioAssay.

System: Fibrinogen (Alexa647-labelled)
experiment notes: Alexa647-fibrinogen binding to printed small molecules – biochemical, small-molecule microarray, 635/667 nm fluorescence, artefact control for SMM control-protein annotation, profiling panel (AID 1131);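 note: z-score merges 667 nm fluorescence with per-spot signal-to-noise over triplicate slides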
assay conditions: fibrinogen-A647 binding fluorescence, higher = more signal
readout kind: composite z-score

Example results:
CCC[C@@H]1C[C@@]1(CCC)[C@@H](NC(=O)c1ccco1)c1ccc(Cl)cc1 | -0.495
COCCCNC(=O)[C@]1(Cc2ccccc2)N=C(c2ccc(OCCCO)cc2)O[C@@H]1c1ccccc1N=[N+]=[N-] | 0.977
Cc1ccc(N2C(=O)c3ccccc3[C@](C)(C(=O)NC(C)C)[C@@H]2c2ccc(CO)cc2)nc1 | -2.28

Query (compound): Cc1cc(C)c(C(O)C2C=CC3C(=O)N(c4ccccc4)C(=O)C3N2Nc2ccccc2)c(C)c1 (centres undefined) ; field requested: composite z-score
1.03

###

experiment notes: growth of efflux-deficient E. coli DRC39 – strain DRC39, OD650, 24 h, E. coli filamentation inducers, primary screen (AID 1178);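 note: growth measured as culture turbidity by optical density at 650 nm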
assay conditions: E. coli DRC39 acrAB, higher = more signal, called active from +8 up or from −8 down
The label depends only on z-score: fulfilled if it is at least 0.03, not fulfilled if it is smaller.

COCC(=C=CC[C@@H](O)c1ccccc1OCCO)C[C@@H](O)c1ccccn1 | not fulfilled
COC(=O)[C@]1(Cc2ccccc2CN=[N+]=[N-])N=C(c2ccc(OCCCO)cc2)O[C@@H]1c1ccccc1CN=[N+]=[N-] | fulfilled
CCN(CC)c1ccc(N2CC=CC34O[C@@H]5/C=C\CCCOC(=O)C5[C@H]3C(=O)N(CCCCCO)[C@@H]4C2=O)cc1 (stereo not given in full) | not fulfilled
COC(=O)[C@@]1(Cc2ccc(OC)cc2)[C@H]2c3cc(C(=O)N4CCCC4)n(Cc4ccc(C)o4)c3C[C@H]2CN1C(=O)c1ccccc1 | not fulfilled

Next item in the queue.
Could you tell me if the measured z-score of Cc1ccc(C(C)CC(O)C2C=CC3C(=O)N(Cc4ccccc4)C(=O)C3N2n2cnnc2)o1 (stereo not given) reaches 0.03 or more?
not fulfilled

###

experiment notes: budding yeast growth changes without added modifier – OD600, strain BY4716, 24 h, basal condition, primary screen (AID 1173)
assay conditions: S. cerevisiae BY4716 growth, OD600, 24 h; higher = more signal, called active from +8 up or from −8 down
The reader will find reported z-score values listed item by item below.
// return a plain number; no unit text

Look over these answered cases.
CCCNC(=O)[C@@]1(Sc2ccc(C)cc2)CC(=O)N(Cc2ccccc2)[C@@H]1c1ccc(CO)cc1I | -2.59
C=CCNC(=O)[C@@H]1[C@H]2C(=O)O[C@H](c3ccccc3)[C@H](c3ccccc3)N2[C@H](c2ccc(O)cc2)[C@@]12C(=O)Nc1ccc(C#CCCO)cc12 | -0.599
CC(C)C[C@H]1NC(=O)[C@H](C)NC(=O)[C@@]23C(=O)N[C@@H](Cc4ccccc4)C2[C@H](C)[C@@]2(C)O[C@H]2C3/C=C/C/C=C\CNC1=O (some centres undefined) | -0.49

Reported z-score, compound CCCc1cc2c(n1Cc1ccc(OC)cc1)C(C)C1CN(C(=O)c3ccccc3)C(C)(C(=O)OC)C21 (centres undefined) : ____
1.08

###

Test system: Wnt5a (protein binding on small-molecule microarray)
experiment notes: small molecules binding Wnt5a protein – biophysical, small-molecule microarray, 635/667 nm fluorescence, primary screen (AID 1142);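 note: fluorescence read at 667 nm with signal to noise per printed feature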
assay conditions: 635 nm fluorescence, higher = more signal
readout kind: composite z-score
Kindly provide the number alone.

# example entries with known answers
C=CCOC(=O)[C@H]1[C@@H]2C(=O)O[C@@H](c3ccccc3)[C@@H](c3ccccc3)N2[C@@H](c2ccc(OCCOC(=O)[C@H]3C[C@H]4C(=O)N[C@@H](CCCCN(C)C)C(=O)N4[C@H]3c3ccc(O)cc3)cc2)[C@]12C(=O)Nc1ccccc12 | 0.468
N#Cc1ccc(NN2C(C(O)c3ccccc3)C=CC3C(=O)N(c4ccccc4)C(=O)C32)cc1 (stereo not given) | 0.213
CC(C)C[C@H]1NC(=O)[C@H](C)NC(=O)[C@@]23C(=O)N[C@@H](Cc4ccccc4)C2[C@H](C)[C@@]2(C)O[C@H]2C3/C=C/C/C=C\CNC1=O (stereo not given in full) | -0.0392

Requested read-out: composite z-score. Entry: "CN(C)C(=O)[C@@]1(Cc2ccccc2N=[N+]=[N-])N=C(c2ccc(OCCCO)cc2)O[C@H]1c1ccccc1N=[N+]=[N-]"
0.451

Recorded composite z-score for "[N-]=[N+]=NCc1ccccc1[C@H]1OC(c2ccc(OCCCO)cc2)=N[C@@]1(Cc1ccccc1N=[N+]=[N-])C(=O)NCCN1CCOCC1" , please?
0.853

###

Tested on: XIP peptide (Xip251-270)
experiment notes: compounds binding XIP fragment 251-270 – biochemical, small-molecule microarray, fluorescence 635/667 nm, 0.5 µg/mL protein, primary screen (AID 1183)
assay conditions: fluorescence 635 nm, higher = more signal
Assign Y whenever composite z-score does not fall below 0.4; assign N whenever it does.

These solved cases illustrate the format of a correct answer.
COCCCNC(=O)[C@@]1(Cc2ccccc2N=[N+]=[N-])N=C(c2ccc(OCCCO)cc2)O[C@H]1c1ccccc1CN=[N+]=[N-] | Y
COC(=O)[C@@]1(Cc2ccc(OC)cc2)[C@H]2c3cc(C(=O)N(C)C)n(Cc4cc(C)n(C)n4)c3C[C@H]2CN1C(=O)c1ccccc1 | Y
C=CCNC(=O)[C@H]1[C@@H]2C(=O)O[C@@H](c3ccccc3)[C@@H](c3ccccc3)N2[C@@H](c2ccc(OCCO)cc2)[C@]12C(=O)N(C(=O)OCCOC)c1ccc(C#CC3=CCCCC3)cc12 | Y
COC(=O)[C@@]1(Cc2ccc(OC)cc2)[C@H]2c3cc(C(=O)N4CCCC4)n(Cc4ccc(C)o4)c3C[C@H]2CN1C(=O)c1ccccc1 | N
COc1ccc([Si](C)(C)[C@@H]2[C@@H](CC(=O)N(CCO)Cc3ccccc3)O[C@]3(C(=O)N(C)c4c(Br)cc(C)cc43)[C@H]2C)cc1 | N
CC(C)CNC(=O)[C@@]1(C)c2ccccc2C(=O)N(Cc2ccccc2)[C@H]1c1ccc(CO)cc1 | N

Kindly review the next compound as well.
Say whether "C=CC[C@@]1(C(=O)NCCN2CCOCC2)N=C(c2ccc(OCCCO)cc2)O[C@@H]1c1ccccc1" shows composite z-score of 0.4 or more.
Y

###

experiment notes: Pseudomonas biofilm growth suppression – PAO1 strain, BacTiter-Glo luminescence, LB-PBS, primary screen (AID 1144)
assay conditions: P. aeruginosa PAO1 biofilm, 12 h, higher = more signal
Please enter y where z-score is greater than or equal to -0.05, and n where it is lower.

Reference set, count: 8
O=C(N1CCOCC1)[C@@]1(CCS(=O)(=O)c2ccccc2)COC(c2ccc(OCCCO)cc2)=N1 | y
C=CCN1C(=O)[C@@]2(O[C@@H](CCn3cc([C@H](O)c4ccccc4)nn3)[C@H]([Si](C)(C)c3ccc(OC)cc3)[C@H]2C)c2cc(NC(=O)c3ccc(OC)cc3)ccc21 | n
C=C(COC)/C(=C/C[C@@H](OC(=O)c1ccncc1)c1cccc(OCCO)c1)c1cc(C(=O)OC)ccc1OC | y
COc1ccc([Si](C)(C)[C@@H]2[C@@H](CC(=O)N(CCO)Cc3ccccc3)O[C@]3(C(=O)N(C)c4c(Br)cc(C)cc43)[C@H]2C)cc1 | y
COCCOC(=O)N1C(=O)[C@@]2(c3cc(C#CCNC(N)=O)ccc31)[C@H](c1ccc(OCCO)cc1)N1[C@H](c3ccccc3)[C@H](c3ccccc3)OC(=O)[C@H]1[C@@H]2C(=O)N1CCN(c2ncccn2)CC1 | y
COc1ccc([Si](C)(C)[C@@H]2[C@@H](CCO)O[C@]3(C(=O)N(Cc4ccccc4)c4ccc(N5CCCCC5=O)cc43)[C@H]2C)cc1 | n
COC(=O)[C@]1(Cc2ccccc2CN=[N+]=[N-])N=C(c2ccc(OCCCO)cc2)O[C@@H]1c1ccccc1CN=[N+]=[N-] | n
CC(C)c1ccc(NN2C(C(O)c3cccs3)C=CC3C(=O)N(c4ccccc4)C(=O)C32)cc1 (centres undefined) | n

Tell me whether z-score is at least -0.05 here: "O=C1c2ccccc2[C@](Cc2ccccc2I)(C(=O)NC2CC2)[C@H](c2ccc(CO)cc2)N1Cc1ccccc1Cl"
y

In plain terms: is recorded z-score at least -0.05 for "[N-]=[N+]=NCc1ccccc1C[C@]1(C(=O)NCCN2CCOCC2)COC(c2ccc(OCCCO)cc2)=N1" ?
n

# bool: z-score of "COc1ccc([Si](C)(C)[C@H]2[C@H](CCO)O[C@@]3(C(=O)N(Cc4cccc(N5CCOC5=O)c4)c4ccccc43)[C@@H]2C)cc1" >= -0.05
n

Would you say "CN(C)C(=O)[C@]1(Cc2ccccc2N=[N+]=[N-])N=C(c2ccc(OCCCO)cc2)O[C@@H]1c1ccccc1CN=[N+]=[N-]" shows z-score at minimum -0.05?
n

Is it the case that OCCCC1=CC(c2cccs2)N(Cc2cccc(OC(F)(F)F)c2)CC1 (centres undefined) has z-score reaching or exceeding -0.05?
y

Hi, just wondering whether O=C1NC(=O)C2C1C=CC(C(O)c1ccc(-c3ccccc3)s1)N2Nc1ccccn1 (centres undefined) shows z-score of -0.05 or higher.
n

Hi team, for "C=CC[C@@]1(C(=O)NCCN2CCOCC2)N=C(c2ccc(OCCCO)cc2)O[C@@H]1c1ccccc1" , is the recorded z-score at or above -0.05?
n
